- Assay target: P2 membranes from rat forebrain (3H-TCP binding)
- Test details: 3H-TCP binding assay (displacement of 3H-TCP from P2 membranes from rat forebrain)
- Test conditions: rat forebrain P2 membranes, pH 7.4, 20 minutes at 30° C.; upper bound stated for the group in nanomolar
pIC50: −log10 of the molar value.
Provide the reported pIC50 of each item.

> print(dat)
                                   molecule  measured.parameter  result
1  Cc1ccc2c(c1)C1CCc3ccsc3C2(C)N1 (stereo not drawn)               pIC50  ≥ 7.40

Need pIC50 for each of these molecules.
1. CC12NC(CCc3ccsc31)c1cc(F)ccc12 (stereo not drawn)
2. CC12NC(CCc3ccsc31)c1ccccc12 (stereo not drawn)

["≥ 7.40", "≥ 7.40"]
